The measured values listed here are drawn from patent US20240262804A1.

molecular target: bovine cardiac myosin (Bos taurus (Bovine), UniProt Q9BE39); experiment: Myosin inhibitory potency: PK/LDH-coupled ATPase assay on bovine skinned cardiac myofibrils; details: pCa=6.25, 50 μM ATP, 25° C., read-out: myosin inhibition activity IC50
Sequence (Q9BE39 whole entry): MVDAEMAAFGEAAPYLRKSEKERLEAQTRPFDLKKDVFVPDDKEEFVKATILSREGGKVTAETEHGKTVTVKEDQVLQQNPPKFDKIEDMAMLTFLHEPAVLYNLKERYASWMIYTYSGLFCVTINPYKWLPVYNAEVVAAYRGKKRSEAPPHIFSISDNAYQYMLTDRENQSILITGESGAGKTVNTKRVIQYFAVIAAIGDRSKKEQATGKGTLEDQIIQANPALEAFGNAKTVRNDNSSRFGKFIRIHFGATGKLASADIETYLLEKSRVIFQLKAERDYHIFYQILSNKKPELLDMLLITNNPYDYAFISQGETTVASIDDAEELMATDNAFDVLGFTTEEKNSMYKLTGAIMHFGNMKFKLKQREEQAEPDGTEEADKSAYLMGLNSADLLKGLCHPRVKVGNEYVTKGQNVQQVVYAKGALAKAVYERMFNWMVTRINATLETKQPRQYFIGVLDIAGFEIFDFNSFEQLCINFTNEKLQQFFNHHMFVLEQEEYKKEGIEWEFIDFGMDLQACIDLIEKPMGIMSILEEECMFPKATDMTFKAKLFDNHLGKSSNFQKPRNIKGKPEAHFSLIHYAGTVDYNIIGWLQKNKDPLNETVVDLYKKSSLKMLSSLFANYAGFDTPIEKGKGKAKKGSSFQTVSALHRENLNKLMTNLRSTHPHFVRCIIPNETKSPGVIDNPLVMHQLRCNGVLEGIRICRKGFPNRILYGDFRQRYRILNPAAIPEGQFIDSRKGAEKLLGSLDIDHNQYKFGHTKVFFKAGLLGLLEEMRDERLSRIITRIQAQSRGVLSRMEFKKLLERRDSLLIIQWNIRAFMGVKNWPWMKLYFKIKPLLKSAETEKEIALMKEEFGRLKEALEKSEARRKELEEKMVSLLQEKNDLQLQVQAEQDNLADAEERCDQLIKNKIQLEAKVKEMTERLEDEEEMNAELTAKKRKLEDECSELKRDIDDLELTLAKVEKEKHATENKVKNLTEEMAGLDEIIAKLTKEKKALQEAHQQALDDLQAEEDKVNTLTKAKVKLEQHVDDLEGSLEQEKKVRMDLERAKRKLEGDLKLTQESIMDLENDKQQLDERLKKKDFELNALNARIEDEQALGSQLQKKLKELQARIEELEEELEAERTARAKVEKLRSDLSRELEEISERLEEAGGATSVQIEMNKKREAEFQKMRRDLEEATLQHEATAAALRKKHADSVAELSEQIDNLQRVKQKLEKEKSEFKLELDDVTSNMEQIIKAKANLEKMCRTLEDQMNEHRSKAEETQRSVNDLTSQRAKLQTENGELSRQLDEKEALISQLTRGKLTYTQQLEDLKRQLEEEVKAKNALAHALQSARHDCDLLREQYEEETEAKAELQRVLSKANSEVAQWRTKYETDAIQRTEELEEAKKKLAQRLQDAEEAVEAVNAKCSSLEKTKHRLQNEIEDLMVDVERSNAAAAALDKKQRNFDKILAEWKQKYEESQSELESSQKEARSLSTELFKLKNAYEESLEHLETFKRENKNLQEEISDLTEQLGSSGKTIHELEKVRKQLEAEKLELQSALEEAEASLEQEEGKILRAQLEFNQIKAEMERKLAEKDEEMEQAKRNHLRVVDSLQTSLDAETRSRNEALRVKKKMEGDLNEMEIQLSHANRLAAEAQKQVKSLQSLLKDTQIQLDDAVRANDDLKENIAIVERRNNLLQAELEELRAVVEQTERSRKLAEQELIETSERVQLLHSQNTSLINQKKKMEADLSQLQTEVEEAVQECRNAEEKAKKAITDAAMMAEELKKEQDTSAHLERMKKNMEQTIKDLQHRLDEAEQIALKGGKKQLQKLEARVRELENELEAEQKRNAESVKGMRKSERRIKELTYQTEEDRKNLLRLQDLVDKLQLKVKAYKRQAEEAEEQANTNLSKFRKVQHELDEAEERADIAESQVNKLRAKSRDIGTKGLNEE
Sequence (P85100 whole entry partner): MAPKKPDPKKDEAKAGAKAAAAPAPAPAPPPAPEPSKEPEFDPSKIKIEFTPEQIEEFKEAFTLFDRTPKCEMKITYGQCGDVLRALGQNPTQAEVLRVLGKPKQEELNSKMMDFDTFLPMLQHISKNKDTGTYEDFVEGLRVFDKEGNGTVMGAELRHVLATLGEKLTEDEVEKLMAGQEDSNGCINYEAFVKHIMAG
Sequence (Q3SZE5 whole entry partner): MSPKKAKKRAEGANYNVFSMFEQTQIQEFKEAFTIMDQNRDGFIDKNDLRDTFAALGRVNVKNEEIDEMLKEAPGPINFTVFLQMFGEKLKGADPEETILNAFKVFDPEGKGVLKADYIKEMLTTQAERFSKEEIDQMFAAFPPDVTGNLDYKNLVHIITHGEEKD
pIC50: −log10 of the molar value.
observation type: pIC50

| smiles entry | measured |
| --- | --- |
| C[C@H](Nc1nc(=O)n(C2CCOCC2)c(=O)[nH]1)c1cccc(C2CCOCC2)c1 | 5.88 |
| C[C@H](Nc1nc(=O)n(C2CCOCC2)c(=O)[nH]1)c1cccc(C(F)(F)F)c1 | 5.16 |

(A) CC(C)N1CCC(n2c(=O)nc(N[C@@H](C)C3CCCCC3)[nH]c2=O)CC1
(B) Cc1cc([C@H](C)Nc2nc(=O)n(C3CCOCC3)c(=O)[nH]2)ccc1Cl
Query: Between these two entries, A and B , state which has the higher pIC50. Please indicate the selected item by its label.
Response: B
